SUBJECT_OF_TEST: T1, human GFRα3 expressed with a C-terminal myc-myc-hexahistidine tag (human, UniProt O60609 32-374, biotinylated (sites not given) in ELISA format 2 and in the Octet cross-competition; not in SPR)
T1 construct: also called hGFRα3-mmh; hGFRα3-mmH
ASSAY_COMMENT: SPR, Ab captured, 37C
MEASURED_METRIC: koff (s⁻¹)

{"columns": ["BINDER", "MEASURED_VALUE"],
 "data": [
  ["H4H2350P (antibody, human IgG4, V domains shown, human IgG4 Fc (H4H)) VH: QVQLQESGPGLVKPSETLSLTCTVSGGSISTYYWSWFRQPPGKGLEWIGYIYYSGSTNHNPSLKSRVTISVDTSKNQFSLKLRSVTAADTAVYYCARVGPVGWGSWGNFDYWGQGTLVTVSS VL: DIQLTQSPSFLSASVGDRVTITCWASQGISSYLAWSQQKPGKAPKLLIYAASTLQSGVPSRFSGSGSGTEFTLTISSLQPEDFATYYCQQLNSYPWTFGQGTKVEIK", 0.00128],
  ["H4H2294S (antibody, human IgG4, V domains shown, human IgG4 Fc (H4H)) VH: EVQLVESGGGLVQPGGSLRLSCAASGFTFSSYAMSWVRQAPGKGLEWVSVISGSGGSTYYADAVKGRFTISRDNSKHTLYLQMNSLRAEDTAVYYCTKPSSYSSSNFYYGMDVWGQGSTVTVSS VL: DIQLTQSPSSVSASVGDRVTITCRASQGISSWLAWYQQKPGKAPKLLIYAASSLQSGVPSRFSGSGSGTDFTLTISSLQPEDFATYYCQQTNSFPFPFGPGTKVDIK", 0.000261]
]}
